Tested on: HCT-15 colon
protocol-text: NCI tumour cell line growth inhibition, 48 h

compound	result-modifier	TGI [µM]
COc1cc2nc3c(=C(C#N)C#N)c4ccccc4n3c(=O)c2cc1OC	>	100
N#CC1=C(N)OC2=C(CCCc3ccccc32)C1c1ccc([N+](=O)[O-])cc1 (centres undefined)	=	30.7
COC1(OC)CC2CCCCC2=C(C)N1S(=O)(=O)c1ccccc1 (centres undefined)	>	100
CC1(C)CC[C@]2(C(=O)O)CC[C@]3(C)C(=CC[C@@H]4[C@@]5(C)CC[C@H](OC6OC(C(=O)O)C(O)C(O)C6O)C(C)(C)[C@@H]5CC[C@]43C)[C@@H]2C1 (some centres undefined)	=	30.6
